B1: USP39 (parent)
chain: TLSEAYIQIWKRRDNDETNQQGA

- Variants of: B1
- test-summary: protein stability index of a GFP-peptide fusion (GPS, HEK-293T) (PSI 1-6); higher = more stable;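 note: lentivirally expressed fusions sorted by FACS into six bins by GFP to DsRed ratio, PSI derived from sequencing read proportions per bin multiplied by bin number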
- measurement-parameters: c terminus: native
Measured protein stability index values are reported for all entries that follow.
recorded-endpoint: protein stability index

- TLSEAYIQIWKRRDNFETNQQGA [D16F]: 1.51
- TLSEAVIQIWKRRDNDETNQQGA [Y6V]: 3.28
- TLSEAYIQIWKRRDNDETNQQGK [A23K]: 4.54
- TLSEAYIQIWKRRDNWETNQQGA [D16W]: 3.13
- TLSEAYIQIWKFRDNDETNQQGA [R12F]: 2.61
- TLSEAGIQIWKRRDNDETNQQGA [Y6G]: 3.19
- TLSEAYIQIHKRRDNDETNQQGA [W10H]: 2.9
- TLSEAYIQIWKRRDNDEFNQQGA [T18F]: 1.73
- TLSEAYIQIWKREDNDETNQQGA [R13E]: 2.63
- TLSEAYIQIWSRRDNDETNQQGA [K11S]: 3.78
- TLSEAHIQIWKRRDNDETNQQGA [Y6H]: 3.07
- TLSWAYIQIWKRRDNDETNQQGA [E4W]: 1.73
- TLSEAYIQIWKRRDNDETNQQKA [G22K]: 4.09
- TLSEAYIQIWKRRSNDETNQQGA [D14S]: 1.94
- TLIEAYIQIWKRRDNDETNQQGA [S3I]: 2.3
- TLSEAYIQIWKRRHNDETNQQGA [D14H]: 2.19
- TLSEEYIQIWKRRDNDETNQQGA [A5E]: 2.75
- TLSEAYIQIRKRRDNDETNQQGA [W10R]: 3.49
- TLSEAYIQIWKRRDNDESNQQGA [T18S]: 1.89
- TLSEAYIQIWKRRDNDETYQQGA [N19Y]: 3.5
- TLSEAYIQIWKRRDNDETNQQGM [A23M]: 4.35
- TLSEAYIQIWKRRDNDETNQQGP [A23P]: 4.07
- TLSEAYIQIWKRLDNDETNQQGA [R13L]: 1.84
- TLSEAYIQIWKRRDNDETNQQLA [G22L]: 3.26
- TLSECYIQIWKRRDNDETNQQGA [A5C]: 3.14
- TLSEAYIQIWKRRDNDETNQQSA [G22S]: 3.82
